Test: in vivo
Design: species or system mice
Conditions: female, BALB/c nude, mouse, iv, 20 pmol, total radioactivity, uptake in lung
quantity: tissue uptake at 1 h (%ID/g)
Numbers only, in %ID/g.

Task: Param item = CCCC[C@@H](C(=O)N[C@@H](CC(=O)O)C(=O)N[C@@H](Cc1cccc2ccccc12)C(N)=O)N(C)C(=O)[C@H](Cc1c[nH]c2ccccc12)NC(=O)CCNC(=O)CC(O)CNC(=O)CC(O)CNC(=O)CN1CCN(CC(=O)O)CCN(CC(=O)O)CCN(CC(=O)O)CC1 (stereo partly shown) [[^177Lu]Lu-2, metal not drawn] ; retrieve measured tissue uptake at 1 h.
Result: 4.33

----------
Assay: Octanol/PBS distribution coefficient (logD7.4)
Format: physicochemical
Details: octanol/PBS 1/1, pH 7.4; read-out: logD (octanol/PBS)
quantity: logD

Task: Param item = CCCC[C@@H](C(=O)N[C@@H](CC(=O)O)C(=O)N[C@@H](Cc1cccc2ccccc12)C(N)=O)N(C)C(=O)[C@H](Cc1c[nH]c2ccccc12)NC(=O)CNC(=O)[C@H](Cc1ccc(O)cc1)NC(=O)[C@H](C)NC(=O)[C@@H](CCC(=O)O)NC(=O)CN1CCN(CC(=O)O)CCN(CC(=O)O)CCN(CC(=O)O)CC1 [[^177Lu]Lu-DOTA-MGS5, metal not drawn, reference compound] ; retrieve measured logD.
Result: -2.25

----------
Assay: Biodistribution 4 h p.i. in A431-CCK2R/A431-mock xenografted BALB/c nude mice
Type: in vivo
Settings: female, BALB/c nude, mouse, spleen, iv, 20 pmol, total radioactivity, 4 h p.i., ~0.5 MBq, 20 pmol, n=5; read-out: uptake in spleen
quantity: tissue uptake at 4 h
Answer with the value and then the unit.

Task: Param item = CCCC[C@@H](C(=O)N[C@@H](CC(=O)O)C(=O)N[C@@H](Cc1cccc2ccccc12)C(N)=O)N(C)C(=O)[C@H](Cc1c[nH]c2ccccc12)NC(=O)CNC(=O)[C@H](Cc1ccc(O)cc1)NC(=O)[C@H](C)NC(=O)[C@@H](CCC(=O)O)NC(=O)CN1CCN(CC(=O)O)CCN(CC(=O)O)CCN(CC(=O)O)CC1 [[^177Lu]Lu-DOTA-MGS5, metal not drawn, reference compound] ; retrieve measured tissue uptake at 4 h.
Result: 0.27 %ID/g

----------
Experiment: Biodistribution 4 h p.i. in A431-CCK2R/A431-mock xenografted BALB/c nude mice
Format: in vivo
Settings: female, BALB/c nude, mouse, in vivo, iv, 20 pmol, total radioactivity, uptake in heart
quantity: tissue uptake at 4 h (%ID/g)
Numbers only, in %ID/g.

Task: Param item = CCCC[C@@H](C(=O)N[C@@H](CC(=O)O)C(=O)N[C@@H](Cc1cccc2ccccc12)C(N)=O)N(C)C(=O)[C@H](Cc1c[nH]c2ccccc12)NC(=O)CCNC(=O)CC(O)CNC(=O)CC(O)CNC(=O)CN1CCN(CC(=O)O)CCN(CC(=O)O)CCN(CC(=O)O)CC1 (stereo partly shown) [[^177Lu]Lu-2, metal not drawn] ; retrieve measured tissue uptake at 4 h.
Result: 0.07

----------
Experiment: in vivo
Set-up: species or system mice
Conditions: female, BALB/c nude, mouse, iv, 20 pmol, total radioactivity, uptake in heart
quantity: tissue uptake at 1 h

Task: Param item = CCCC[C@@H](C(=O)N[C@@H](CC(=O)O)C(=O)N[C@@H](Cc1cccc2ccccc12)C(N)=O)N(C)C(=O)[C@H](Cc1c[nH]c2ccccc12)NC(=O)CCNC(=O)CC(O)CNC(=O)CC(O)CNC(=O)CN1CCN(CC(=O)O)CCN(CC(=O)O)CCN(CC(=O)O)CC1 (stereo partly shown) [[^177Lu]Lu-2, metal not drawn] ; retrieve measured tissue uptake at 1 h.
Result: 0.62 %ID/g

----------
Experiment: in vivo
Parameters: species or system mice
Conditions: female, BALB/c nude, mouse, iv, 20 pmol, total radioactivity, uptake in A431-CCK2R xenografts
Protocol: Based on these preliminary studies, [^177Lu]Lu-2 was selected for further biodistribution studies evaluating the tumor uptake and tissue distribution for up to 7 days after injection. […] For quantification, a 1% standard was used. […] All collected samples were weighed and measured in the γ-counter together with the standard. Results were expressed as percentage of injected activity per gram of tissue (%IA/g), and tumor-to-organ activity ratios were calculated for selected tissues. […]
quantity: tissue uptake at 24 h

Task: Param item = CCCC[C@@H](C(=O)N[C@@H](CC(=O)O)C(=O)N[C@@H](Cc1cccc2ccccc12)C(N)=O)N(C)C(=O)[C@H](Cc1c[nH]c2ccccc12)NC(=O)CCNC(=O)CC(O)CNC(=O)CC(O)CNC(=O)CN1CCN(CC(=O)O)CCN(CC(=O)O)CCN(CC(=O)O)CC1 (stereo partly shown) [[^177Lu]Lu-2, metal not drawn] ; retrieve measured tissue uptake at 24 h.
Result: 33.6 %ID/g

----------
Experiment: in vivo
Set-up: species or system mice
Conditions: female, BALB/c nude, mouse, iv, 20 pmol, total radioactivity, uptake in intestine
quantity: tissue uptake at 1 h

Task: Param item = CCCC[C@@H](C(=O)N[C@@H](CC(=O)O)C(=O)N[C@@H](Cc1cccc2ccccc12)C(N)=O)N(C)C(=O)[C@H](Cc1c[nH]c2ccccc12)NC(=O)CCNC(=O)CC(O)CNC(=O)CC(O)CNC(=O)CN1CCN(CC(=O)O)CCN(CC(=O)O)CCN(CC(=O)O)CC1 (stereo partly shown) [[^177Lu]Lu-2, metal not drawn] ; retrieve measured tissue uptake at 1 h.
Result: 1 %ID/g

----------
Experiment: Biodistribution 4 h p.i. in A431-CCK2R/A431-mock xenografted BALB/c nude mice
Assay type: in vivo
Details: female, BALB/c nude, mouse, in vivo, iv, 20 pmol, total radioactivity, uptake in femur
quantity: tissue uptake at 4 h (%ID/g)
Numbers only, in %ID/g.

Task: Param item = CCCC[C@@H](C(=O)N[C@@H](CC(=O)O)C(=O)N[C@@H](Cc1cccc2ccccc12)C(N)=O)N(C)C(=O)[C@H](Cc1c[nH]c2ccccc12)NC(=O)CCNC(=O)CC(O)CNC(=O)CC(O)CNC(=O)CN1CCN(CC(=O)O)CCN(CC(=O)O)CCN(CC(=O)O)CC1 (stereo partly shown) [[^177Lu]Lu-2, metal not drawn] ; retrieve measured tissue uptake at 4 h.
Result: 0.22

----------
Test: Biodistribution 4 h p.i. in A431-CCK2R/A431-mock xenografted BALB/c nude mice
Type: in vivo
Settings: female, BALB/c nude, mouse, blood, iv, 20 pmol, total radioactivity, 4 h p.i., ~0.5 MBq, 20 pmol, n=5; read-out: uptake in blood
quantity: tissue uptake at 4 h (%ID/g)
Give bare numbers, in %ID/g.

Task: Param item = CCCC[C@@H](C(=O)N[C@@H](CC(=O)O)C(=O)N[C@@H](Cc1cccc2ccccc12)C(N)=O)N(C)C(=O)[C@H](Cc1c[nH]c2ccccc12)NC(=O)CNC(=O)[C@H](Cc1ccc(O)cc1)NC(=O)[C@H](C)NC(=O)[C@@H](CCC(=O)O)NC(=O)CN1CCN(CC(=O)O)CCN(CC(=O)O)CCN(CC(=O)O)CC1 [[^177Lu]Lu-DOTA-MGS5, metal not drawn, reference compound] ; retrieve measured tissue uptake at 4 h.
Result: 0.11

----------
Test: Biodistribution 4 h p.i. in A431-CCK2R/A431-mock xenografted BALB/c nude mice
Format: in vivo
Details: female, BALB/c nude, mouse, in vivo, iv, 20 pmol, total radioactivity, uptake in lung
quantity: tissue uptake at 4 h (%ID/g)
Give bare numbers, in %ID/g.

Task: Param item = CCCC[C@@H](C(=O)N[C@@H](CC(=O)O)C(=O)N[C@@H](Cc1cccc2ccccc12)C(N)=O)N(C)C(=O)[C@H](Cc1c[nH]c2ccccc12)NC(=O)CCNC(=O)CC(O)CNC(=O)CC(O)CNC(=O)CN1CCN(CC(=O)O)CCN(CC(=O)O)CCN(CC(=O)O)CC1 (stereo partly shown) [[^177Lu]Lu-2, metal not drawn] ; retrieve measured tissue uptake at 4 h.
Result: 0.22

----------
Test: in vivo
Design: species or system mice
Settings: female, BALB/c nude, mouse, iv, 20 pmol, total radioactivity, uptake in kidneys
quantity: tissue uptake at 1 h (%ID/g)
Answers are plain numbers, in %ID/g.

Task: Param item = CCCC[C@@H](C(=O)N[C@@H](CC(=O)O)C(=O)N[C@@H](Cc1cccc2ccccc12)C(N)=O)N(C)C(=O)[C@H](Cc1c[nH]c2ccccc12)NC(=O)CCNC(=O)CC(O)CNC(=O)CC(O)CNC(=O)CN1CCN(CC(=O)O)CCN(CC(=O)O)CCN(CC(=O)O)CC1 (stereo partly shown) [[^177Lu]Lu-2, metal not drawn] ; retrieve measured tissue uptake at 1 h.
Result: 2.84

----------
Test: Biodistribution blocking experiment with 1000-fold excess of non-radiolabeled peptide
Assay type: in vivo, mice
Conditions: female, BALB/c nude, mouse, A431-CCK2R tumor xenograft, iv, total radioactivity, 4 h p.i., 1000-fold excess of non-radiolabeled peptide, n=1; read-out: uptake in A431-CCK2R xenograft, blocking
quantity: tissue uptake at 4 h (%ID/g)
Answers are plain numbers, in %ID/g.

Task: Param item = CCCC[C@@H](C(=O)N[C@@H](CC(=O)O)C(=O)N[C@@H](Cc1cccc2ccccc12)C(N)=O)N(C)C(=O)[C@H](Cc1c[nH]c2ccccc12)NC(=O)CNC(=O)[C@H](Cc1ccc(O)cc1)NC(=O)[C@H](C)NC(=O)[C@@H](CCC(=O)O)NC(=O)CN1CCN(CC(=O)O)CCN(CC(=O)O)CCN(CC(=O)O)CC1 [[^177Lu]Lu-DOTA-MGS5, metal not drawn, reference compound] ; retrieve measured tissue uptake at 4 h.
Result: 0.54
